- SYSTEM UNDER TEST: T1, hNPR1-mFc:hBNP complex (human, UniProt P16860 103-134)
- T1 construct: also called human NPR1 complexed to BNP
- PROCEDURE SUMMARY: SPR, mAb captured, 37C
Below: a set of entries, each annotated with reported 100 nM Ag Bound (RU).
Kindly report the value followed by its unit.

Known 100 nM Ag Bound (RU) results, listed for orientation:
BINDER	ENDPOINT RESULT
mAb25502 (antibody, human IgG4, V domains shown) VH: QLQLQESGPGLVKPSETLSLTCTVSGGSISSSSYYWGWIRQPPGKGLEWIGSIYYSGSPYYIPSLKSRVTISVDTSKNQFSLKLSSVTAADTAMYYCARQGRGIARAGPFDYWGQGTLVTVSS VL: DIQMTQSPSSLSASVGDRVTITCRASQGISNYLAWYQEKPGKVPKLLIYAASTLQSGVPSRFSGSGSGTDFTLTITSLQSEDVATYYCQKYNSAPPWTFGQGTKVEIK	102 RU
mAb22035 (antibody, human IgG4, V domains shown) VH: EVQLVESGGGLVQPGRSLRLSCAASGFTFDDYAMHWVRQAPGKGLEWVSGISWNSGTIGYADSVKGRFTMSRDNAKNSLYLQMNSLRPEDTALYYCAKDMGVSLALWGAFDIWGQGTMVTVSS VL: DIQMTQSPSSLSASVGDKVTITCRASQNIRTYLNWYQQKPGKAPKVLISTASSLQSGVPSRFSGSGSGTDFTLTISSLQPEDFAVFYCQQSFGIPRTFGQGTKVEIK	243 RU
mAb22809 (antibody, human IgG4, V domains shown) VH: QLQLRESGPGLVKPSETLSLTCTVSGGSINDNSFFWDWIRQTPGRGLEWIGNIFFDGNTYYTPSLKSRVIISVDMSQNQFSLRLTSVTAADTALYYCARHKRSMTAWGFFDYWGQGTLVTVSS VL: DIQMTQSPSSLSASVGDRVTITCRASKRINTYLNWYQQKPGKAPKVLIYSASNLQSGVPSRFSGSGSGTDFTLTINSLQPEDFATYFCQQSFSAPPITFGQGTRLEIK	63 RU

Now turn to the next binder.
Request: Given the entry mAb25491 (antibody, human IgG4, V domains shown) VH: QVQLVQSGAEVMKPGASVKVSCKASGYTFTGYYIHWVRQAPGQGLEWMGWITPNSGATNYAQKFQGRVTLTRDTSISTAYMELTRLKSDDTAVYYCARGGQLEFFYYYYGMDVWGQGTTVTVSS VL: DIQMTQSPSSLSASAGDRVTITCRASQSIDSYLNWYQQKPGKAPKLLISATSGFQSGVPSRFSGSGSGTDFTLTISSLQPEDFGTYYCQQSYTTPITFGQGTRLEIK , report its measured 100 nM Ag Bound (RU).
Response: 96 RU

Data origin, for the record: patent US20240309103A1
